- PROTOCOL_DETAILS: pH stability of quenched linker-payloads in buffers (LCMS)
- Format: physicochemical
- TEST_SETTINGS: pH 4.0, day 1
PROPERTY_NAME: P: percentage of budesonide released from the linker-payloads (%)

COMPOUND	EXPERIMENTAL_VALUE
CCCC1OC2CC3C4CCC5=CC(=O)C=CC5(C)C4C(O)CC3(C)C2(C(=O)COCN2CCCC(NC(=O)OCc3ccc(NC(=O)C(CCCNC(N)=O)NC(=O)C(NC(=O)CCOCCOCCOCCOCCNC(=O)CCC(=O)N4Cc5ccccc5-c5c(nnn5CCOCCOCCOCCOCCC(=O)NCCS(=O)(=O)O)-c5ccccc54)C(C)C)cc3)C2=O)O1 (mixture of isomers) [Q1L1-PII-12]	0
CCCC1O[C@@H]2C[C@H]3[C@@H]4CCC5=CC(=O)C=C[C@]5(C)[C@H]4[C@@H](O)C[C@]3(C)[C@]2(C(=O)COC2CCCN2C(=O)CNC(=O)CCOCCOCCOCCOCCNC(=O)CCC(=O)N2Cc3ccccc3-c3c(nnn3CCOCCOCCOCCOCCC(=O)NCCS(=O)(=O)O)-c3ccccc32)O1 (some centres unmarked) [Q1L6-PII-9]	69
CCCC1OC2CC3C4CCC5=CC(=O)C=CC5(C)C4C(O)CC3(C)C2(C(=O)COC2CCN2C(=O)CNC(=O)CCOCCOCCOCCOCCNC(=O)CCC(=O)N2Cc3ccccc3-c3c(nnn3CCOCCOCCOCCOCCC(=O)NCCS(=O)(=O)O)-c3ccccc32)O1 (mixture of isomers) [Q1L6-PII-13]	0
CCCC1O[C@@H]2C[C@H]3[C@@H]4CCC5=CC(=O)C=C[C@]5(C)[C@H]4[C@@H](O)C[C@]3(C)[C@]2(C(=O)COCNC(=O)CNC(=O)OCc2ccc(O[C@@H]3O[C@H](CO)[C@@H](O)[C@H](O)[C@H]3O)c(C(=O)NCCNC(=O)COC3C#CCCCCC3)c2)O1 (some centres unmarked) [L18-PII-1, COT-EDA-(GLC)PAB-G-NHCH2-Bud]	0
CCCC1O[C@@H]2C[C@H]3[C@@H]4CCC5=CC(=O)C=C[C@]5(C)[C@H]4[C@@H](O)C[C@]3(C)[C@]2(C(=O)COCN(C)C(=O)CNC(=O)OCc2ccc(NC(=O)[C@H](CCCNC(N)=O)NC(=O)[C@@H](NC(=O)CCOCCOCCOCCOCCNC(=O)CCC(=O)N3Cc4ccccc4-c4c(nnn4CCOCCOCCOCCOCCC(=O)NCCS(=O)(=O)O)-c4ccccc43)C(C)C)cc2)O1 (some centres unmarked) [Q1L1-PII-8]	0

These data points were gathered from patent US20230119539A1.
